System: Cavia porcellus
Experiment: Hypotensive activity at guinea pig assessed as decrease in blood pressure at 50 mg/kg, po after 5 hrs (reference value: 112 +/- 2.6 to 122 +/- 2.7 mmHg)
Type: functional
ATTRIBUTE MEASURED: Activity (mmHg)

COMPOUND: CC(C)NCC(O)c1ccc2c(c1)OCO2.Cl (stereo not given)
ATTRIBUTE MEASURED: Activity
NUMERIC VALUE: 87
//
COMPOUND: CC(C)(C)NCC(O)c1ccc2c(c1)OCO2.Cl (stereo not given)
ATTRIBUTE MEASURED: Activity
NUMERIC VALUE: 77
//
COMPOUND: CC(C)NCC(O)c1ccc(NS(C)(=O)=O)cc1 (stereo not given)
ATTRIBUTE MEASURED: Activity
NUMERIC VALUE: 107
//
COMPOUND: CC(C)NC(C)C(O)c1ccc2c(c1)OCO2.Cl (stereo not given)
ATTRIBUTE MEASURED: Activity
NUMERIC VALUE: 94
//
COMPOUND: CC(C)NCC(O)COc1cccc2ccccc12 (stereo not given)
ATTRIBUTE MEASURED: Activity
NUMERIC VALUE: 117
